test system: Escherichia coli; assay: Antibacterial activity against Escherichia coli after 24 hrs by agar dilution method; format: functional
EXPERIMENTAL_ENDPOINT: MIC

// known answers, use as guide
QUERY: Please state recorded MIC (tested on Escherichia coli) of "COc1ccc2[nH]c(-c3ccc(O)cc3)nc2c1"
RESULT: 12.5 µM

QUERY: Lookup "Oc1ccccc1-c1nc2ccccc2[nH]1"
RESULT: 25 µM

Let us examine a further case.
QUERY: Please state recorded MIC (tested on Escherichia coli) of "COc1ccc2[nH]c(-c3ccc(OC)c(OC)c3)nc2c1"
RESULT: > 200 µM

---

test system: Radical scavenging activity; experiment: Antioxidant activity assessed as DPPH radical scavenging activity after 30 mins by spectrophotometric analysis; assay type: functional
pEC50: −log10 of the molar value.
EXPERIMENTAL_ENDPOINT: pEC50

// known answers, use as guide
QUERY: For "Oc1cc(O)cc(-c2nc3cc(O)ccc3[nH]2)c1" , what is its reported pEC50?
RESULT: 4.59

QUERY: Lookup "CC(C)(C)c1cc(O)ccc1O"
RESULT: 4.44

QUERY: Lookup "Oc1cccc(-c2nc3ccccc3[nH]2)c1"
RESULT: < 3.70

QUERY: Lookup "c1ccc(-c2nc3ccccc3[nH]2)cc1"
RESULT: < 3.70

Further cases:
QUERY: For "Oc1ccccc1-c1nc2ccccc2[nH]1" , what is its reported pEC50?
RESULT: < 3.70

QUERY: Lookup "COc1ccc2[nH]c(-c3cccc(O)c3)nc2c1"
RESULT: < 3.70

---

tested on: Radical scavenging activity; test: Antioxidant activity assessed as DPPH radical scavenging activity after 30 mins by spectrophotometric analysis; type: functional
EXPERIMENTAL_ENDPOINT: pEC50
Expect pEC50 as a plain number equal to -log10 of the molar concentration.

QUERY: For "Oc1ccc2[nH]c(-c3ccccc3O)nc2c1" , what is its reported pEC50?
RESULT: 4.52

QUERY: Lookup "Oc1ccc(-c2nc3cc(O)ccc3[nH]2)cc1"
RESULT: 4.47

QUERY: Lookup "COc1cc(O)ccc1-c1nc2cc(O)ccc2[nH]1"
RESULT: 4.57

QUERY: Lookup "COc1ccc(-c2nc3cc(O)ccc3[nH]2)c(OC)c1"
RESULT: 4.49

---

tested on: Bacillus cereus; assay: Antibacterial activity against Bacillus cereus after 24 hrs by agar dilution method; format: functional
Listed molecules paired with reported MIC
All answers are understood in µM, so give the number only.

QUERY: For "Oc1ccc2[nH]c(-c3ccc(O)c(O)c3)nc2c1" , what is its reported MIC?
RESULT: 100

QUERY: Lookup "Oc1ccc(-c2nc3cc(O)ccc3[nH]2)cc1"
RESULT: 50

QUERY: Lookup "COc1ccc2[nH]c(-c3ccc(O)cc3O)nc2c1"
RESULT: 50

---

system: Escherichia coli; assay: Antibacterial activity against Escherichia coli after 24 hrs by agar dilution method; assay type: functional
Listed compounds paired with reported MIC
All answers are understood in µM, so give the number only.

// known answers, use as guide
QUERY: For "COc1cc(O)ccc1-c1nc2cc(O)ccc2[nH]1" , what is its reported MIC?
RESULT: 12.5

QUERY: Lookup "Oc1cccc(-c2nc3ccccc3[nH]2)c1"
RESULT: 12.5

QUERY: Lookup "Oc1ccc2[nH]c(-c3ccccc3)nc2c1"
RESULT: 100

QUERY: Lookup "COc1ccc2[nH]c(-c3ccccc3)nc2c1"
RESULT: 25

QUERY: Lookup "COc1ccc2[nH]c(-c3cccc(O)c3)nc2c1"
RESULT: 12.5

QUERY: Lookup "COc1ccc2[nH]c(-c3ccc(O)cc3O)nc2c1"
RESULT: 6.25

QUERY: Lookup "Oc1ccc(-c2nc3ccccc3[nH]2)cc1"
RESULT: 25

QUERY: Lookup "Oc1cccc(-c2nc3cc(O)ccc3[nH]2)c1"
RESULT: 100

Further cases:
QUERY: For "Oc1ccc2[nH]c(-c3ccccc3O)nc2c1" , what is its reported MIC?
RESULT: 6.25
